Reference source: ChEMBL document CHEMBL3228010

# reported log10(C50); entries follow
Experiment: Displacement of ethidium from poly[d(G-C)]-poly[d(G-C)] DNA (unknown origin) by fluorimetric method
measured parameter: log10(C50) (log10 of the value in µM)

structure smiles string | log10(C50)
C[n+]1ccc(Nc2ccc(NC(=O)CCCCCCC(=O)Nc3ccc(Nc4cc[n+](C)cc4)cc3)cc2)cc1.[Br-].[Br-] | 1.88
C/C(=N\NC(=N)N)c1ccc(C(=O)Nc2ccc(Nc3cc[n+](C)c4ccc(N)cc34)cc2)cc1.Cc1ccc(S(=O)(=O)O)cc1.Cc1ccc(S(=O)(=O)[O-])cc1 | -0.28
C[n+]1ccc(Nc2ccc(NC(=O)c3ccc(Nc4c(-c5ccccc5)c[n+](C)c5ccc(N)cc45)cc3)cc2)cc1.[Br-].[Br-] | -0.20
C[n+]1ccc(Nc2ccc(NC(=O)c3ccc(Nc4cc[n+](C)c5ccccc45)cc3)cc2N)cc1.[I-].[I-] | 0.68
C[n+]1c2ccccc2c(Nc2ccc(NC(=O)Nc3ccc(NC(=N)NC(=N)N)cc3)cc2)c2ccc(N)cc21.Cl.[Cl-] | -0.89
Br.C/C(=N\NC(=N)N)c1ccc(C(=O)Nc2ccc(Nc3cc[n+](C)c4cc(N)ccc34)cc2)cc1.[Br-] | -0.22
COc1cc(C(=O)Nc2ccc[n+](C)c2)ccc1NC(=O)c1ccc(C(=O)Nc2ccc(C(=O)Nc3ccc[n+](C)c3)cc2OC)cc1.Cc1ccc(S(=O)(=O)[O-])cc1.Cc1ccc(S(=O)(=O)[O-])cc1 | -0.05
C[n+]1ccc(Nc2ccc(NC(=O)c3ccc(Nc4cc[n+](C)c5ccccc45)cc3N)cc2N)cc1.[I-].[I-] | 0.50
C[n+]1cc(-c2ccc(NC(=O)c3ccc(Nc4cc[n+](C)c5ccccc45)cc3)cc2)c(N)nc1N.Cc1ccc(S(=O)(=O)[O-])cc1.Cc1ccc(S(=O)(=O)[O-])cc1 | 0.44
Cc1c(C(=O)Nc2ccc(C(=O)Nc3ccc[n+](C)c3)cc2)ccc(C(=O)Nc2ccc(C(=O)Nc3ccc[n+](C)c3)cc2)c1C.Cc1ccc(S(=O)(=O)[O-])cc1.Cc1ccc(S(=O)(=O)[O-])cc1 | 1.08
C[n+]1ccc(Nc2ccc(C(=O)Nc3ccc(Nc4cc[n+](C)c5ccc(N)cc45)c(N)c3)cc2)cc1.Cc1ccc(S(=O)(=O)[O-])cc1.Cc1ccc(S(=O)(=O)[O-])cc1 | 0.43
COc1cc(NC(=O)c2ccc(C(=O)Nc3ccc(C(=O)Nc4ccc[n+](C)c4)c(OC)c3)cc2)ccc1C(=O)Nc1ccc[n+](C)c1.Cc1ccc(S(=O)(=O)[O-])cc1.Cc1ccc(S(=O)(=O)[O-])cc1 | -0.46

---

Test: Lipophilic-hydrophilic balance, Rm of the compound by partition chromatography
Assay type: physicochemical
# Rm annotations
measured parameter: Rm

structure smiles string | measured parameter | value observed
COc1cc(N)cc2c(Nc3ccc(NC(=O)c4ccc(Nc5cc[n+](C)cc5)cc4)cc3)cc[n+](C)c12.Cc1ccc(S(=O)(=O)[O-])cc1.Cc1ccc(S(=O)(=O)[O-])cc1 | Rm | 0.07
C[n+]1ccc(Nc2ccc(C(=O)Nc3ccc(Nc4cc[n+](C)c5cc(N)ccc45)cc3)cc2)cc1.Cc1ccc(S(=O)(=O)[O-])cc1.Cc1ccc(S(=O)(=O)[O-])cc1 | Rm | -0.04
Cc1cc(C(=O)Nc2ccc(C(=O)Nc3ccc[n+](C)c3)cc2)c(C)cc1C(=O)Nc1ccc(C(=O)Nc2ccc[n+](C)c2)cc1.Cc1ccc(S(=O)(=O)[O-])cc1.Cc1ccc(S(=O)(=O)[O-])cc1 | Rm | 0.48
CCCC[n+]1cccc2cc(NC(=O)/C=C/c3ccc(C(=O)Nc4ccc5c(ccc[n+]5CCCC)c4)cc3)ccc21.Cc1ccc(S(=O)(=O)[O-])cc1.Cc1ccc(S(=O)(=O)[O-])cc1 | Rm | 0.9
C[n+]1ccc(Nc2ccc(NC(=O)c3ccc(/C=C/C4=NCCCN4)cc3)cc2)c2cc(N)ccc21.Cc1ccc(S(=O)(=O)O)cc1.Cc1ccc(S(=O)(=O)[O-])cc1 | Rm | 0.17
CC[n+]1cc(-c2ccc(NC(=O)c3ccc(Nc4cc[n+](CC)c5ccccc45)cc3)cc2)c(N)nc1N.[I-].[I-] | Rm | 0.45
C[n+]1cccc(NC(=O)c2ccc(NC(=O)c3ccc(C(=O)Nc4ccc5c(ccc[n+]5C)c4)cc3)cc2)c1.Cc1ccc(S(=O)(=O)[O-])cc1.Cc1ccc(S(=O)(=O)[O-])cc1 | Rm | -0.25
COCC[n+]1cccc2cc(NC(=O)c3ccc(C(=O)Nc4ccc5c(ccc[n+]5CCOC)c4)cc3)ccc21.Cc1ccc(S(=O)(=O)[O-])cc1.Cc1ccc(S(=O)(=O)[O-])cc1 | Rm | 0.4
CC[n+]1ccc(Nc2ccc(NC(=O)c3ccc(Nc4cc[n+](CC)c5ccc(N)cc45)cc3)cc2N)cc1.[I-].[I-] | Rm | 0.15
CC[n+]1cccc(-c2ccc(NC(=O)/C=C/c3ccc(C(=O)Nc4ccc(-c5ccc(-c6ccc(-c7ccc[n+](CC)c7)cc6)cc5)cc4)cc3)cc2)c1.Cc1ccc(S(=O)(=O)[O-])cc1.Cc1ccc(S(=O)(=O)[O-])cc1 | Rm | -0.3
C[n+]1cccc(NC(=O)c2ccc(NC(=O)c3ccc(C(=O)Nc4ccc(C(=O)Nc5ccc[n+](C)c5)c5ccccc45)cc3)cc2)c1.Cc1ccc(S(=O)(=O)[O-])cc1.Cc1ccc(S(=O)(=O)[O-])cc1 | Rm | 0.08
CCC[n+]1ccc(Nc2ccc(NC(=O)c3ccc(Nc4cc[n+](CCC)c5ccc(N)cc45)cc3)cc2)cc1.[Br-].[Br-] | Rm | 0.46
CCCC[n+]1cccc2cc(NC(=O)c3ccc(C(=O)Nc4ccc5c(ccc[n+]5CCCC)c4)c(N)c3)ccc21.Cc1ccc(S(=O)(=O)[O-])cc1.Cc1ccc(S(=O)(=O)[O-])cc1 | Rm | 0.6
C[n+]1ccc(Nc2ccc(NC(=O)c3ccc(C(=O)Nc4ccc(C(=O)Nc5ccc[n+](C)c5)cc4)cc3)cc2)cc1.Cc1ccc(S(=O)(=O)[O-])cc1.Cc1ccc(S(=O)(=O)[O-])cc1 | Rm | 0.07
CCC[n+]1cccc(NC(=O)c2ccc(NC(=O)c3ccc(C(=O)Nc4ccc5c(ccc[n+]5CCC)c4)cc3)cc2)c1.Cc1ccc(S(=O)(=O)[O-])cc1.Cc1ccc(S(=O)(=O)[O-])cc1 | Rm | 0.44
CC[n+]1cccc(NC(=O)c2ccc(NC(=O)c3ccc(C(=O)Nc4ccc(C(=O)Nc5ccc[n+](CC)c5)c(N)c4)c(N)c3)cc2N)c1.Cc1ccc(S(=O)(=O)[O-])cc1.Cc1ccc(S(=O)(=O)[O-])cc1 | Rm | -0.9
C[n+]1ccc(-c2ccc(NC(=O)c3ccc(Nc4cc[n+](C)c5ccccc45)cc3)cc2)cc1.Cc1ccc(S(=O)(=O)[O-])cc1.Cc1ccc(S(=O)(=O)[O-])cc1 | Rm | 0.33
C[n+]1ccc(Nc2ccc(NC(=O)c3ccc(Nc4cc[n+](C)c5ccccc45)cc3)cc2)cc1.[Br-].[Br-] | Rm | 0.29
C[n+]1ccc(Nc2ccc(C(=O)Nc3ccc(Nc4cc[n+](C)c5ccccc45)cc3)cc2)cc1.Cc1ccc(S(=O)(=O)[O-])cc1.Cc1ccc(S(=O)(=O)[O-])cc1 | Rm | 0.27
CC[n+]1ccc(Nc2ccc(C(=O)Nc3ccc(Nc4cc[n+](CC)c5ccc(N)cc45)cc3)cc2)cc1.[I-].[I-] | Rm | 0.19
C[n+]1cccc2cc(NC(=O)CCc3ccc(C(=O)Nc4ccc5c(ccc[n+]5C)c4)cc3)ccc21.Cc1ccc(S(=O)(=O)[O-])cc1.Cc1ccc(S(=O)(=O)[O-])cc1 | Rm | 0.85
CC[n+]1ccc(Nc2ccc(NC(=O)c3ccc(Nc4cc[n+](CC)c5ccccc45)cc3N)cc2)cc1.[I-].[I-] | Rm | 0.65
CCC[n+]1cc(-c2ccc(NC(=O)c3ccc(Nc4cc[n+](CCC)c5ccc(N)cc45)cc3N)cc2)c(N)nc1N.Cc1ccc(S(=O)(=O)[O-])cc1.Cc1ccc(S(=O)(=O)[O-])cc1 | Rm | 0.56
